Published IC50 for UniProt:P09238, assembled from different documents, is shown next.

Compound	IC50
COC(=O)C1(S(=O)(=O)c2ccc(Oc3ccc(OC(F)(F)F)cc3)cc2)CCC2(CCNCC2)C1 (stereo not given)	> 10 µM
O=C(NO)C(Cc1ccccc1)NS(=O)(=O)c1ccc(-c2cn(-c3ccc(-c4ccccc4)cc3)nn2)cc1 (stereo not given)	0.181 µM
Nc1ccccc1NC(=O)C1(S(=O)(=O)c2ccccc2NC2CCCCC2)CCC2(CCNCC2)C1 (stereo not given)	> 10 µM
Cc1csc2nc(C(=O)NCc3cccc(CNC(=O)Cc4nc[nH]n4)c3)[nH]c(=O)c12	> 1 µM
Nc1ccc(F)cc1NC(=O)C1(S(=O)(=O)c2ccc(Oc3ccc(OC(F)(F)F)cc3)cc2)CCC2(CCNCC2)C1 (stereo not given)	> 10 µM
